studyTarget: HCV NS5B570n-BK (Hepatitis C virus genotype 1b)
Construct: His tag (N); made in house; host or cells: E. coli strain M15
Sequence (P26663 2421-2989): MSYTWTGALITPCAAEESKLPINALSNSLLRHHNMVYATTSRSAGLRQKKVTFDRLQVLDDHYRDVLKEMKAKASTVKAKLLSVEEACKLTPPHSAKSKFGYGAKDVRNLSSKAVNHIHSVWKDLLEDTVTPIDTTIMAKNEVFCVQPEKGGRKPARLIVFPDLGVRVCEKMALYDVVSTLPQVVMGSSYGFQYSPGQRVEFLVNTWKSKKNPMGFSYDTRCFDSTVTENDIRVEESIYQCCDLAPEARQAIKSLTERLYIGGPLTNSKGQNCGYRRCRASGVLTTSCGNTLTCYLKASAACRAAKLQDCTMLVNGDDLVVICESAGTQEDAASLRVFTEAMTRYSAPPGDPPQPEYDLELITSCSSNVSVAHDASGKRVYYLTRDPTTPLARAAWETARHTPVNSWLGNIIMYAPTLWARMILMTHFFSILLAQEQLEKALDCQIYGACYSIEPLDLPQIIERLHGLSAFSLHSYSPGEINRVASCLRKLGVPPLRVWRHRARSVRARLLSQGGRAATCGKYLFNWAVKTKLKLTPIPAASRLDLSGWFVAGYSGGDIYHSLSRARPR
testDescription: HCV NS5B RNA polymerase activity
Type: biochemical, HCV BK strain
conditionSummary: 200 nM cIRES
Method: The enzymatic activity of HCV NS5B570n-BK is measured as incorporation of radiolabeled nucleotide monophosphates into acid insoluble RNA products. […] The amount of light emitted from the scintillant is converted to counts per minute (CPM) on a Topcount® plate reader (Perkin-Elmer, Energy Range: Low, Efficiency Mode: Normal, Count Time: 1 min, Background Subtract: none, Cross talk reduction: Off). Data is analyzed with GraphPad® Prism® and/or Microsoft® Excel®. […]
experimentalEndpoint: IC50 (nM)
Note: unit nM is implicit; provide only the numeric part.

For the compound CS(=O)(=O)Nc1ccc2c(c1)S(=O)(=O)C=C(c1c(O)c3cc(F)ccc3n(Cc3ccc(F)cc3)c1=O)N2 [Compound I-24] , give its measured IC50 value.
67

* * *

Measured melting point of individual entries

For the compound O=c1c(C2=CS(=O)(=O)c3ccccc3N2)c(O)c2cc(F)ccc2n1Cc1ccc(F)c(F)c1 , give its measured melting point value.
230 to 235 °C

For the compound CC[C@H](C)[C@H]1C(O)=C(C2=CS(=O)(=O)c3ccccc3N2)C(=O)N1CCC(C)C , give its measured melting point value.
72 to 80 °C

For the compound O=C1C(C2=CS(=O)(=O)c3ccccc3N2)=C(O)[C@H](C2CCCCC2)N1Cc1ccc(F)cc1.[Na] , give its measured melting point value.
> 250 °C

For the compound NC(=O)CCOc1ccc2c(c1)S(=O)(=O)C=C(c1c(O)c3cc(F)ccc3n(CCC3CC3)c1=O)N2 , give its measured melting point value.
> 250 °C

For the compound CS(=O)(=O)Nc1ccc2c(c1)S(=O)(=O)C=C(c1c(O)c3cc(F)ccc3n(CC3CCCCC3)c1=O)N2 , give its measured melting point value.
184 to 203 °C

For the compound CNC(=O)COc1ccc2c(c1)S(=O)(=O)C=C(c1c(O)c3cc(F)ccc3n(Cc3ccc(F)cc3)c1=O)N2 , give its measured melting point value.
> 240 °C

For the compound NS(=O)(=O)Nc1ccc2c(c1)S(=O)(=O)C=C(c1c(O)c3cc(F)ccc3n(CCC3CC3)c1=O)N2 [Compound I-40] , give its measured melting point value.
183 to 186 °C

For the compound CC(C)CCN1C(=O)C(C2=CS(=O)(=O)c3ccccc3N2)=C(O)[C@@H]1C1CCCCC1 , give its measured melting point value.
98 to 100 °C

For the compound CN1C(c2nc(Cc3ccc(F)cc3)c3ccc(F)cc3c2O)=CS(=O)(=O)c2cc(Cl)ccc21 , give its measured melting point value.
254 to 256 °C

For the compound CC[C@H](C)[C@H]1C(O)=C(C2=CS(=O)(=O)c3ccccc3N2)C(=O)N1Cc1ccccc1 , give its measured melting point value.
88 to 95 °C

For the compound CS(=O)(=O)Nc1ccc2c(c1)S(=O)(=O)C=C(c1c(O)c3cc(F)ccc3n(Cc3ccncc3)c1=O)N2.O=C(O)C(F)(F)F , give its measured melting point value.
167 to 169 °C

For the compound CC(C)(C)[C@H]1C(O)=C(C2=CS(=O)(=O)c3cc(NS(N)(=O)=O)ccc3N2)C(=O)N1Cc1ccc(F)cc1 , give its measured melting point value.
150 to 156 °C

For the compound O=c1c(C2=CS(=O)(=O)c3cc(NS(=O)(=O)c4ccccc4)ccc3N2)c(O)c2cc(F)ccc2n1CCC1CC1 , give its measured melting point value.
> 200 °C

For the compound O=C1C(C2=CS(=O)(=O)c3ccccc3N2)=C(O)[C@H](C2CCCCC2)N1Cc1ccc(F)cc1 , give its measured melting point value.
180 °C (dec.)

For the compound CC(C)(C)[C@H]1C(O)=C(C2=CS(=O)(=O)c3cc(NS(C)(=O)=O)ccc3N2)C(=O)N1CCC1CC1 , give its measured melting point value.
140 to 145 °C

For the compound CC(C)CCn1c(=O)c(C2=CS(=O)(=O)c3cc(NS(C)(=O)=O)ccc3N2)c(O)c2cc(F)ccc21 , give its measured melting point value.
205 to 219 °C

For the compound CC(C)CCn1c(=O)c(C2=CS(=O)(=O)c3ccc(Cl)cc3N2)c(O)c2ccccc21 , give its measured melting point value.
90 to 110 °C

For the compound CNC(=O)Nc1ccc2c(c1)S(=O)(=O)C=C(c1c(O)c3cc(F)ccc3n(CCC3CC3)c1=O)N2 , give its measured melting point value.
> 220 °C

For the compound CS(=O)(=O)Nc1ccc2c(c1)S(=O)(=O)C=C(c1c(O)c3cc(F)ccc3n(Cc3cccnc3)c1=O)N2 , give its measured melting point value.
174 to 186 °C

For the compound CC(C)CCn1c(=O)c(C2=CS(=O)(=O)c3ccccc3N2)c(O)c2cc(F)cnc21 , give its measured melting point value.
90 to 112 °C

For the compound CS(=O)(=O)Nc1ccc2c(c1)S(=O)(=O)C=C(c1c(O)c3cc(F)ccc3n(CCC3CC3)c1=O)N2.[Na] , give its measured melting point value.
> 250 °C

For the compound COC(=O)COc1ccc2c(c1)S(=O)(=O)C=C(c1c(O)c3cc(F)ccc3n(Cc3ccc(F)cc3)c1=O)N2 , give its measured melting point value.
200 to 207 °C
